Overview of reported IC50 across a group of binders:
Target: T1, His-tagged human IGF1R protein (ACRO Biosystems Inc., Cat #: IGR-H5229) (human, UniProt P08069 31-932)
T1 construct: Bought protein; also called hIGF1R-His; not shown: His tag
T1 sequence (P08069 31-932): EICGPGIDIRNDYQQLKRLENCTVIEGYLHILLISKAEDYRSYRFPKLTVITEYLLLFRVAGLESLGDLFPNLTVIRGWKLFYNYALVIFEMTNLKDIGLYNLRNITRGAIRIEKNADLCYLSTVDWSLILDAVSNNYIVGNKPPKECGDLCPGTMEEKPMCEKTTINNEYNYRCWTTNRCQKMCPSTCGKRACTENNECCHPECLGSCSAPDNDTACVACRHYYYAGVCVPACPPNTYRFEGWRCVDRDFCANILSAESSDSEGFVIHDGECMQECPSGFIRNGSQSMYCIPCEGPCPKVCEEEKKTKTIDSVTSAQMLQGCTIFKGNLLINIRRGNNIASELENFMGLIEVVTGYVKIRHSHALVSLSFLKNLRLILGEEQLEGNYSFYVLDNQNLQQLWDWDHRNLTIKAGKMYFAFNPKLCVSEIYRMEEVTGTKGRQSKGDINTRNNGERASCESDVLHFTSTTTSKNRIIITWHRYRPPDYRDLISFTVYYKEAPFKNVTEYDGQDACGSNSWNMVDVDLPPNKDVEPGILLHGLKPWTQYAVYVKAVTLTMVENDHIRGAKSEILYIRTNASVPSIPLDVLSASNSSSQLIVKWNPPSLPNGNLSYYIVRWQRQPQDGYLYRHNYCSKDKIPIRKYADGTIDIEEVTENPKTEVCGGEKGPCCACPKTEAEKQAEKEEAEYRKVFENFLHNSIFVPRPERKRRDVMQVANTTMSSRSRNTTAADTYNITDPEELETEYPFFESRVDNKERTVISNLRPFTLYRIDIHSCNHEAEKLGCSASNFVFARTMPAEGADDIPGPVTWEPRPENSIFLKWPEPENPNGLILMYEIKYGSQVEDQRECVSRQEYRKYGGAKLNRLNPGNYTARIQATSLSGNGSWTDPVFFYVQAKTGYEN
Experiment: blocking ELISA on coated hIGF1R-His; blocked ligand: biotinylated human IGF-I
Property Name: IC50 (nM)

# Binder, Recorded Number
records = [
    ("anti-IGF1R antibody 10G1 (antibody, human IgG1, V domains shown) VH: QVQLVESGGGLVKPGGSLRLSCAASEFTFSDYYMSWIRQSPGKGLEWVSYISNSGSFTNYADSVKGRFTISRDNAKNSLYLQMNSLRAEDSAIYYCVRDQAPVTSKYYYYGMDVWGQGTTVTVSS VL: EIVLTQSPSSLSASVGDRVTITCRASQGIRNDFAWYQQKPGKAPKRLIYAASRLQRGVPSRFSGSGSGTEFTLTISSLQPEDFATYYCLQHNSYPYTFGQGTKLEIK", 1.6),
    ("anti-IGF1R antibody 12A4 (antibody, V domains shown) VH: EVQLVQSGGGEIRPGGSLRLSCAASGFTFADYGMSWVRQAPGEGLEWVSEIDWTGGSKLYADSVKGRFTISRDNAKNSLFLQMNSLRAEDTALYYCVRDRGAVSPKYYYYGMDVWGQGTTVTVSS VL: EIVLTQSPSSLSASVGDRVTITCRASQGIRNDLGWYQQKPGKAPKRLIYAASRLQSGVPSRFSGSGSGTDFTLTISSLQPEDFATYYCLQHNSYPYTFGQGTKLEIK", 2),
    ("anti-IGF1R antibody 12D1 (antibody, human IgG1, V domains shown) VH: QVQLVESGGGVVRPGGSLRLSCAASGFTFDDYGMSWVRQVPGKGLEWVSGINWNGGSTDYADSVKGRFTISREKAKNSLYLQMNSLRAEDTALYYCVRDRGAVTRRYYYYGMDVWGQGTTVTVSS VL: DIQMTQSPSSLSASVGDRVTITCRASQDIRNDLGWYQLKPGKAPKRLIYAASRLQSGVPSRFSGSGSGTEFTLTISSLQPEDFATYYCLQHNSYPYTFGQGTKLEIK", 2.2),
    ("anti-IGF1R antibody 10D1 (antibody, human IgG1, V domains shown) VH: QVQLQQSGGGVVRPGGSLRLSCAASGFTFADYGMSWVRQVPGKGLEWVSGINWNGGSTDYADSVKGRFTISRDNAKHSLYLQMNSLRAEDTAFYYCARDRGAVSRRYYYYGMDVWGLGTTVTVSS VL: AIQLTQSPSSLSASVGDRVTITCRASQDIRNDLGWYQLKPGKAPKRLIYAASRLQSGVPSGFSGSGSGTEFTLTISSLQPEDFATYYCLQHNSYPYTFGQGTKLEIK", 1.3),
]

FYI, the data here is from patent US20260258141A1.
